Numbers sourced from ChEMBL document CHEMBL1649182.

System name: Penicillin-binding protein 2x (Streptococcus pneumoniae serotype 4 (strain ATCC BAA-334 / TIGR4), UniProt P14677)
Sequence (P14677 whole entry): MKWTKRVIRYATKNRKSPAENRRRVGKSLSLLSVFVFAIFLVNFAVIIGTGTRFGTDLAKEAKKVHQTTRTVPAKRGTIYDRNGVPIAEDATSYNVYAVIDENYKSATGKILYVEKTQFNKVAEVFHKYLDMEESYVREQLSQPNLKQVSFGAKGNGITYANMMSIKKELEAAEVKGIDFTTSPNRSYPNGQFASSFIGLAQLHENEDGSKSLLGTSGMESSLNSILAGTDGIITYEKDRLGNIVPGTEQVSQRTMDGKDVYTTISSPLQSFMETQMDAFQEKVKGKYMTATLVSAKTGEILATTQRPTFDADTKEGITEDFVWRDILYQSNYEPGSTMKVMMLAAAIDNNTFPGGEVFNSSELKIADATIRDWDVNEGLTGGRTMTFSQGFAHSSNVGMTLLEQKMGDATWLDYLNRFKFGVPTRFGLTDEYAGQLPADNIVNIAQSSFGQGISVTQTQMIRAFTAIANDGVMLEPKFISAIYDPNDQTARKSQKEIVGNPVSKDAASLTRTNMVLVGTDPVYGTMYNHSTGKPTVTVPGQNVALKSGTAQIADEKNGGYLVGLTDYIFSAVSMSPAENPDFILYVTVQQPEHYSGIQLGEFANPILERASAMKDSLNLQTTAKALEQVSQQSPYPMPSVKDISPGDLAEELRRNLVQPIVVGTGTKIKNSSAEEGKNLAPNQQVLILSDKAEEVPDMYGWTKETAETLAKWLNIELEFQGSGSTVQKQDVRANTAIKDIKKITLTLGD
Assay details: Displacement of Biocillin FL from Streptococcus pneumoniae 3243 PBP2X
pIC50: −log10 of the molar value.
Binary classification by pIC50, with 7 as an inclusive lower bound for 1; all other cases are 0.

[
  {
    "Compound": "C[C@@H](O)[C@H]1C(=O)N2C(C(=O)O)=C(SCCNC=N)C[C@H]12 [IMIPENEM ANHYDROUS]",
    "Assigned category": 0
  },
  {
    "Compound": "CC1(C)S[C@@H]2[C@H](NC(=O)Cc3ccccc3)C(=O)N2[C@H]1C(=O)O",
    "Assigned category": 1
  },
  {
    "Compound": "CO/N=C(\\C(=O)N[C@@H]1C(=O)N2C(C(=O)O)=C(COC(N)=O)CS[C@H]12)c1ccco1",
    "Assigned category": 1
  },
  {
    "Compound": "CC1(C)S[C@@H]2[C@H](NC(=O)[C@H](N)c3ccc(O)cc3)C(=O)N2[C@H]1C(=O)O",
    "Assigned category": 1
  }
]

---

Each record here notes measured IC50.
Assay details: Displacement of Biocillin FL from Streptococcus pneumoniae 1077 PBP1B

[
  {
    "Molecule": "CC1(C)S[C@@H]2[C@H](NC(=O)Cc3ccccc3)C(=O)N2[C@H]1C(=O)O [PENICILLIN G]",
    "Readout unit": "ng/mL",
    "IC50": 5
  },
  {
    "Molecule": "C[C@@H](O)[C@H]1C(=O)N2C(C(=O)O)=C(SCCNC=N)C[C@H]12 [IMIPENEM ANHYDROUS]",
    "Readout unit": "ng/mL",
    "IC50": 106
  },
  {
    "Molecule": "C[C@@H](O)[C@H]1C(=O)N2C(C(=O)O)=C([C@H]3CCCO3)S[C@H]12 [FAROPENEM]",
    "Readout unit": "ng/mL",
    "IC50": 5
  },
  {
    "Molecule": "CC1(C)S[C@@H]2[C@H](NC(=O)[C@H](N)c3ccc(O)cc3)C(=O)N2[C@H]1C(=O)O [AMOXICILLIN]",
    "Readout unit": "ng/mL",
    "IC50": 6
  },
  {
    "Molecule": "CO/N=C(\\C(=O)N[C@@H]1C(=O)N2C(C(=O)O)=C(COC(N)=O)CS[C@H]12)c1ccco1 [CEFUROXIME]",
    "Readout unit": "ng/mL",
    "IC50": 8
  }
]

---

System name: Penicillin-binding protein 1A (Streptococcus pneumoniae serotype 4 (strain ATCC BAA-334 / TIGR4))
Sequence (Q04707 whole entry): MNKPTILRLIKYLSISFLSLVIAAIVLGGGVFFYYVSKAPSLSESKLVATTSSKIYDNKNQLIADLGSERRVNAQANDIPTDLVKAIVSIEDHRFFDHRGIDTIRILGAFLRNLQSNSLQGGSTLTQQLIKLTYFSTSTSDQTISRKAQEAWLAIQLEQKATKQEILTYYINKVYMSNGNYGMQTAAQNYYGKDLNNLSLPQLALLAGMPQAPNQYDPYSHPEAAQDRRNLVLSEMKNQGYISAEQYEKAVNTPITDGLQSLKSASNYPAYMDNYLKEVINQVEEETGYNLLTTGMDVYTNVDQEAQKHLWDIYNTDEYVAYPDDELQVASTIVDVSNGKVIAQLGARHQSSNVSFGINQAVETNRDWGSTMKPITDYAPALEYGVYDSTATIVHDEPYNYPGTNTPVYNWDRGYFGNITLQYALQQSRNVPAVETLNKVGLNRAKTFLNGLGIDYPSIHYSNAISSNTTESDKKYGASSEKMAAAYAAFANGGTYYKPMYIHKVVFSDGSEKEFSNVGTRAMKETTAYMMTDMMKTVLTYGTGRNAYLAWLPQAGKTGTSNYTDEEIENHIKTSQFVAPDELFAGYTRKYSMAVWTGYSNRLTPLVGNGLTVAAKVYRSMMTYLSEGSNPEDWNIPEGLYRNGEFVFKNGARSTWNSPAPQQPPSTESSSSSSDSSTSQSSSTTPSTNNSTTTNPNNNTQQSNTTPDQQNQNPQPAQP
Assay details: Displacement of Biocillin FL from Streptococcus pneumoniae 1077 PBP1A
pIC50: −log10 of the molar value.
Binary classification by pIC50, with 7 as an inclusive lower bound for 1; all other cases are 0.

[
  {
    "Compound": "CO/N=C(\\C(=O)N[C@@H]1C(=O)N2C(C(=O)O)=C(COC(N)=O)CS[C@H]12)c1ccco1 [CEFUROXIME]",
    "Assigned category": 0
  },
  {
    "Compound": "C[C@@H](O)[C@H]1C(=O)N2C(C(=O)O)=C(SCCNC=N)C[C@H]12 [IMIPENEM ANHYDROUS]",
    "Assigned category": 0
  },
  {
    "Compound": "CC1(C)S[C@@H]2[C@H](NC(=O)[C@H](N)c3ccc(O)cc3)C(=O)N2[C@H]1C(=O)O [AMOXICILLIN]",
    "Assigned category": 1
  },
  {
    "Compound": "C[C@@H](O)[C@H]1C(=O)N2C(C(=O)O)=C([C@H]3CCCO3)S[C@H]12 [FAROPENEM]",
    "Assigned category": 1
  },
  {
    "Compound": "CC1(C)S[C@@H]2[C@H](NC(=O)Cc3ccccc3)C(=O)N2[C@H]1C(=O)O [PENICILLIN G]",
    "Assigned category": 1
  }
]
